// reported GI50 per item
- Tested on: CAKI-1
- assay_summary: NCI tumour cell line growth inhibition, 48 h
The source made the active and inactive calls. Rule as the data show it: active = GI50 up to about 1.1 µM and inactive = higher.

[
  {
    "molecule": "O=c1n(-c2ccccc2)c(=O)n2n1C1C=CC2C2C(C1)C2(Cl)Cl (stereo unspecified)",
    "GI50": "> 100 µM (inactive)"
  },
  {
    "molecule": "CC1(C)O[C@@H](CCl)C[C@H](C#N)O1",
    "GI50": "> 100 µM (inactive)"
  },
  {
    "molecule": "CC[C@H](C)N(CCN)C(=O)c1cc2ccccc2c(-c2ccccc2Cl)n1",
    "GI50": "5.57 µM (inactive)"
  },
  {
    "molecule": "COc1cc(C[P+](c2ccccc2)(c2ccccc2)c2ccccc2)cc(OC)c1OC",
    "GI50": "> 100 µM (inactive)"
  },
  {
    "molecule": "Cn1c(=O)c2nc(NCCO)cnc2n(C)c1=O",
    "GI50": "95.5 µM (inactive)"
  },
  {
    "molecule": "CC(CO)(CO)/N=C/c1cc(I)cc(I)c1O",
    "GI50": "22.2 µM (inactive)"
  }
]

---

- Tested on: SF-268
- assay_summary: NCI tumour cell line growth inhibition, 48 h
Active and inactive are the calls of the source. Rule as the data show it: active = GI50 up to about 1.1 µM and inactive = higher. Where a SMILES comes first, the peptide text is derived from it. [ ]: non-standard residue; d: D form. The star is where a group is joined. ξ: configuration not given here. Propanoyl(3-(4-MeO-Ph)) = COc1ccc(CCC(=O)*)cc1; Thr(3ξ) = CC(O)[C@H](N)C(=O)O; dNMeL = CN[C@H](CC(C)C)C(=O)O; Boc = CC(C)(C)OC(=O)*; OBn = c1ccc(CO*)cc1; ξLac = CC(O)C(=O)O
// reported GI50 per item

[
  {
    "compound": "C[C@H](CCC(=O)O)[C@H]1CC[C@H]2[C@@H]3CC[C@@H]4C[C@H](O)CC[C@]4(C)[C@H]3C[C@H](O)[C@]12C [DEOXYCHOLIC ACID]",
    "GI50": "40.1 µM (inactive)"
  },
  {
    "compound": "Brc1ccc(C2C3CSc4ccccc4C3=NN2c2ccccc2)cc1 (centres undefined)",
    "GI50": "70.1 µM (inactive)"
  },
  {
    "compound": "CC(C)(C)OC(=O)NC(Cc1ccccc1)C(=O)NC(Cc1ccccc1)C(=O)NCC(=O)OCc1ccccc1 (stereo not drawn) (Boc-Phe-Phe-Gly-OBn; configuration not given here)",
    "GI50": "15.3 µM (inactive)"
  },
  {
    "compound": "CCN(CC)CCC(=O)NC1c2ccccc2Oc2c(C)cccc21 (centres undefined)",
    "GI50": "> 100 µM (inactive)"
  },
  {
    "compound": "Nc1ccc2c(SCc3ccc([N+](=O)[O-])cc3)c3ccccc3nc2c1",
    "GI50": "15.2 µM (inactive)"
  },
  {
    "compound": "COC(=O)/C=C(\\S/C(=C(/c1ccc(OC)cc1)n1cc(C(=O)OC)c(C(=O)OC)n1)c1ccc(OC)cc1)C(=O)OC",
    "GI50": "17.1 µM (inactive)"
  },
  {
    "compound": "CN(C)CCCNC(=O)N/N=C\\c1cccc2ccccc12",
    "GI50": "> 10 µM (inactive)"
  },
  {
    "compound": "COc1cc(OC)c(Oc2cccc(OC)c2OC)c(OC)c1",
    "GI50": "> 100 µM (inactive)"
  },
  {
    "compound": "COc1cc([N+](=O)[O-])c(S(=O)(=O)[O-])cc1-[n+]1nc(C(=O)Nc2ccccc2)nn1-c1ccc([N+](=O)[O-])c(S(=O)(=O)O)c1",
    "GI50": "> 100 µM (inactive)"
  },
  {
    "compound": "CN(C)c1nncc2[nH]cnc12",
    "GI50": "> 100 µM (inactive)"
  },
  {
    "compound": "CC(C)(C)[Si](Nc1ccccc1)(c1ccccc1)c1ccccc1",
    "GI50": "13.5 µM (inactive)"
  },
  {
    "compound": "O=[N+]([O-])c1c(O)c2nonc2c2nn(-c3ccccc3)nc12",
    "GI50": "> 100 µM (inactive)"
  },
  {
    "compound": "CC(=O)Nc1ccc(Sc2nnc(NC(C)=O)s2)cc1",
    "GI50": "> 100 µM (inactive)"
  },
  {
    "compound": "O=C1C2CC=CCC2C(=O)C12CCc1ccccc12 (centres undefined)",
    "GI50": "> 100 µM (inactive)"
  },
  {
    "compound": "Clc1ccc(OCc2nnc(CCCCCCCCc3nnc(COc4ccc(Cl)cc4)n3Nc3ccccc3)n2Nc2ccccc2)cc1",
    "GI50": "12.8 µM (inactive)"
  },
  {
    "compound": "CC(O)CNC(=O)C(C)Oc1ccc(OCC2CCCCC2)cc1 (centres undefined)",
    "GI50": "> 100 µM (inactive)"
  },
  {
    "compound": "O=C1C(CN2CCCC2)CCCC1CN1CCCC1 (centres undefined)",
    "GI50": "25.8 µM (inactive)"
  },
  {
    "compound": "COc1ccc(CCC(=O)OC(C)[C@H](NC(=O)[C@@H](CC(C)C)N(C)C(=O)[C@@H]2CCCN2C(=O)C(C)O)C(=O)OCc2ccccc2)cc1 (some centres undefined) (H-[ξLac]P[dNMeL][Thr(3ξ)](Propanoyl(3-(4-MeO-Ph)))-OBn)",
    "GI50": "31.5 µM (inactive)"
  },
  {
    "compound": "COC(=O)/C(=N\\NC(N)=S)C(C#N)c1ccccc1 (centres undefined)",
    "GI50": "> 100 µM (inactive)"
  }
]
